Overview of recorded selectivity: WT/H1047R for various compounds
biological target: PI3Kα (p110[H1047R]/p85) kinase (Homo sapiens, UniProt P42336, H1047R); test: PI3Kα (p110[H1047R]/p85) kinase ADP-Glo Assay; format: biochemical; settings: ADP-Glo Assay IC50 ratio, 25 uM ATP
Sequence (P42336 whole entry H1047R): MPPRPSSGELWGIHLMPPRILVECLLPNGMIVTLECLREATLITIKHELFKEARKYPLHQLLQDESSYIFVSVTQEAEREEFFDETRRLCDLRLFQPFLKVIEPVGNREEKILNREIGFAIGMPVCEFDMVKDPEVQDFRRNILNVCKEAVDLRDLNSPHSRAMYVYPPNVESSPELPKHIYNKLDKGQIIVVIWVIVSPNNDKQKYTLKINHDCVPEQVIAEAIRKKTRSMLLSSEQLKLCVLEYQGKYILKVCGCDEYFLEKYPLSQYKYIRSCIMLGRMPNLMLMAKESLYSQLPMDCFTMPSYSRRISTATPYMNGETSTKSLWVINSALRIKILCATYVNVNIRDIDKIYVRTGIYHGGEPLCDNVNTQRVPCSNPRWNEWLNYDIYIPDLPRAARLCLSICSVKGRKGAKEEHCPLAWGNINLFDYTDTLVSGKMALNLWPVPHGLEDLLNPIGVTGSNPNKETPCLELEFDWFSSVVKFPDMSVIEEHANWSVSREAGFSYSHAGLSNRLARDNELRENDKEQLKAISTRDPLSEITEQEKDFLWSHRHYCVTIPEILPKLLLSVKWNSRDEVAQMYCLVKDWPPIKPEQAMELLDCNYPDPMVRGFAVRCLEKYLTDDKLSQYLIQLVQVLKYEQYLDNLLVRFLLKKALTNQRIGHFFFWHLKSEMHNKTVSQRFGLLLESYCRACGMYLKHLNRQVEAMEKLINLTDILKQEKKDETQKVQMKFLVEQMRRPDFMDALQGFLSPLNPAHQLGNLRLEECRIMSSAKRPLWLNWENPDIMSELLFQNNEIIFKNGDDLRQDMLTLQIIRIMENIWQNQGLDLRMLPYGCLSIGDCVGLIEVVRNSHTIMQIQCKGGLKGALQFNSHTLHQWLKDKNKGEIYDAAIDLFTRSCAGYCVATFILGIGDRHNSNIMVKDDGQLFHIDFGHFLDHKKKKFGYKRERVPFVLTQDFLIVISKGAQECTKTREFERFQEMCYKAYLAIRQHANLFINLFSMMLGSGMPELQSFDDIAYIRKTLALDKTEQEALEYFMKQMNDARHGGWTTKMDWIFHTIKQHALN
Sequence (P27986 whole entry partner): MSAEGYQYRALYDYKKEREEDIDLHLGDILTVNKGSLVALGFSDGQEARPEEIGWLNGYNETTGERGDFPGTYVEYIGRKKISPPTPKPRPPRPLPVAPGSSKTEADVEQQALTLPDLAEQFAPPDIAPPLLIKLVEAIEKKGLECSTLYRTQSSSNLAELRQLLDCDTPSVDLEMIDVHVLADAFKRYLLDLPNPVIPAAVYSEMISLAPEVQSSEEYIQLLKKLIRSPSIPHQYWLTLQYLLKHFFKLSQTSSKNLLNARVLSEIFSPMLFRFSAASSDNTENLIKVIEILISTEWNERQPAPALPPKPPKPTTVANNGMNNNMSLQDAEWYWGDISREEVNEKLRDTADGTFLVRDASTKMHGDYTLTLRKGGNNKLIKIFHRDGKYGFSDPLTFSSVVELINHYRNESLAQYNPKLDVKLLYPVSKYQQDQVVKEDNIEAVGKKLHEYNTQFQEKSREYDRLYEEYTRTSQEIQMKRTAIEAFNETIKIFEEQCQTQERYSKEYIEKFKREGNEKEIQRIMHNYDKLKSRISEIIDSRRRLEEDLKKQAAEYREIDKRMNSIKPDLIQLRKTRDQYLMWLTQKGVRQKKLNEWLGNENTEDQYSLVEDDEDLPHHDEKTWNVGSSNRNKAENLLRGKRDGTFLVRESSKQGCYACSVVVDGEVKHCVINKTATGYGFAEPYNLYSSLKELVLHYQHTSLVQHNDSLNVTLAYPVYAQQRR
Just the number, please.

Worked cases, selectivity: WT/H1047R given:
Cc1cc(C(C)Nc2ccccc2C(=O)O)c2cc(-c3ccccc3C(N)=O)n(C)c(=O)c2c1 (stereo not shown); 46.0
Cc1cc(C(C)Nc2ccccc2C(=O)O)c2cc(C#Cc3ccn(C)n3)n(C)c(=O)c2c1 (stereo not shown); 11.5
Cc1cc(C(C)Nc2ccccc2C(=O)O)c2cc(-c3cccc(F)c3)n(C)c(=O)c2c1 (stereo not shown); 15.3
Cc1cc(C(C)Nc2ccccc2C(=O)O)c2cc(-c3ccc(F)cc3F)n(C)c(=O)c2c1 (stereo not shown); 100.2
Cc1cc(C(C)Nc2ccccc2C(=O)O)c2cc(-c3ccccc3)[nH]c(=O)c2c1 (stereo not shown); 40

Report selectivity: WT/H1047R, nothing else, for this compound: COc1ccc(-c2cc3c(C(C)Nc4ccccc4C(=O)O)cc(C)cc3c(=O)n2C)cc1 (stereo not shown) 23.9

Report selectivity: WT/H1047R, nothing else, for this compound: Cc1cc(C(C)Nc2ccccc2C(=O)O)c2cc(-c3cnn(-c4ccc(C(N)=O)cn4)c3)n(C)c(=O)c2c1 (stereo not shown) 15.3

Report selectivity: WT/H1047R, nothing else, for this compound: Cc1cc(C(C)Nc2cc3ccsc3cc2C(=O)O)c2cc(-c3ccccc3)n(C)c(=O)c2c1 (stereo not shown) 27.3

Report selectivity: WT/H1047R, nothing else, for this compound: Cc1cc(C(C)Nc2ccccc2C(=O)O)c2cc(-c3ccc4nc(C)sc4c3)n(C)c(=O)c2c1 (stereo not shown) 16.1

Report selectivity: WT/H1047R, nothing else, for this compound: Cc1cc(C(C)Nc2ccccc2C(=O)O)c2cc(-c3ccc(N4CCC(C)(O)CC4)nc3)n(C)c(=O)c2c1 (stereo not shown) 19.2

Report selectivity: WT/H1047R, nothing else, for this compound: COc1cccc(-c2cc3c(C(C)Nc4ccccc4C(=O)O)cc(C)cc3c(=O)n2C)c1 (stereo not shown) 30.3

Report selectivity: WT/H1047R, nothing else, for this compound: `Cc1cc([C@@H](C)Nc2ccccc2C(=O)O)c2cc(-c3cnc(C(C)(C)O)nc3)n(C)c(=O)c2c1` 11.2

Report selectivity: WT/H1047R, nothing else, for this compound: Cc1cc(C(C)Nc2ccccc2C(=O)O)c2cc(C#CC3(O)CCCC3)n(C)c(=O)c2c1 (stereo not shown) 43.3

Report selectivity: WT/H1047R, nothing else, for this compound: Cc1cc(C(C)Nc2ccccc2C(=O)O)c2cc(-c3ccc(F)cc3)n(C3CCOCC3)c(=O)c2c1 (stereo not shown) 79.1

Report selectivity: WT/H1047R, nothing else, for this compound: Cc1cc(C(C)Nc2ccccc2C(=O)O)c2cc(-c3cccc(C#N)c3)n(C)c(=O)c2c1 (stereo not shown) 14.7

----------
target: PI3Kα (p110/p85) kinase (wild type, "WT") (Homo sapiens, UniProt P42336); assay: PI3Kα (p110/p85) kinase ADP-Glo Assay; conditions: 25 uM ATP
Sequence (P42336 whole entry): as the sequence (P42336 whole entry H1047R) above, with R1047H counted along it
Sequence (P27986 whole entry partner): as the sequence (P27986 whole entry partner) above
Category key, based on recorded IC50: bottom = under 4 µM, middle = from 4 µM up to 30 µM, top = 30 µM and over

Would you please look over these solved cases?
Cc1cc(C(C)Nc2ccccc2C(=O)O)c2cc(-c3ccc(F)cc3)n(C3CCOC3)c(=O)c2c1 (stereo not drawn); middle
Cc1cc(C(C)Nc2ccccc2C(=O)O)c2cc(-c3ccc(P(C)(C)=O)cc3)n(C)c(=O)c2c1 (stereo not drawn); top
COc1ncc(-c2cc3c([C@@H](C)Nc4ccccc4C(=O)O)cc(C)cc3c(=O)n2C)cc1F; middle

Class for `Cc1cc([C@H](C)Nc2ccccc2C(=O)O)c2cc(-c3ccc(-c4cnn(C)c4)cc3)n(C)c(=O)c2c1` ? top

Class for `Cc1cc([C@H](C)Nc2ccccc2C(=O)O)c2cc(-c3cnc(C(C)(C)O)nc3)n(C)c(=O)c2c1` ? top

Data credit: patent US20260125346A1
